Target: T1, HLA-A*02:01 (human)
T1 construct: Captured on streptavidin plates and detected with anti-b2m; also called peptide-receptive MHC molecules; MHC class I
Experiment: UV-ligand exchange, anti-b2m ELISA; peptide exchange yield grade (+ >=10%, ++ >=20%, +++ >=50, ++++ >=75%)
Parameter: peptide exchange yield. Scope: all listed entries.

Before answering, review these 6 worked examples.
| BINDER | peptide exchange yield |
| --- | --- |
| SMNGGVFAV | 20 to 50% |
| GLAPFLLNAV | 50 to 75% |
| SLADSLYNL | 20 to 50% |
| HLIAEIHTA (also called PTHL-001) | 50 to 75% |
| TQTAVITRI | 10 to 20% |
| SIYEYYHAL | 50 to 75% |

May I ask what peptide exchange yield has been recorded for `HLLGHLEQA` ?
50 to 75%

Entry to check: `MISRTPEV`
20 to 50%

Recorded values, source patent US20180282393A1.
